Ref: PubChem BioAssay (NCI)

- Tested on: SNB-75 CNS
- Assay explanation: NCI-60 one-dose screen, 48 h (100 = growth as untreated, 0 = no growth, -100 = all killed)
- Condition set: 10 µM unless noted
About 83,000 compounds went through this panel and 20% of them were active in at least one assay; those are over-represented in the sample as a whole.
Reported metric: growth (%)
Answers are plain numbers, in %.

{"columns": ["Molecule", "growth [%]"],
 "data": [
  ["Nc1nccc2c1ccn2-c1ccc(NC(=O)c2ccc(N3CCOCC3)c(C(F)(F)F)c2)cc1", 25.7],
  ["COc1ccc(/C=C/C(=O)c2ccc(Oc3ncnc4ccccc34)cc2)cc1OC", 74.8],
  ["COc1ccc2c(c1)OC(N(C(C)=O)C(C)=O)=C(C#N)C2c1ccc(F)cc1 (stereo not given)", 8.71],
  ["O=S(=O)(CCN1CCOCC1)Nc1cc(-c2ccc3ncnc(Nc4ccc(F)c(Cl)c4)c3c2)cnc1Cl", -20.7],
  ["Cc1ccc(-c2nc3c(N=Nc4ccc(S(N)(=O)=O)cc4)c(N)nn3c(N)c2C#N)cc1", 49]
]}

Look at each molecule and report its growth.
1. COc1cccc(/C=N/C(=S)NC2(C)C3CCC(C3)C2(C)C)c1O (stereo not given)
2. CCOC(=O)NNc1nncc2ccccc12
3. O=C(Nc1ccc(-n2cc(-c3ccncc3)c(-c3ccc(O)c(Cl)c3)n2)cc1)c1ccc(Cl)c(Cl)c1
4. CCCC(C)(C)COC(=O)c1cccc(N)c1

### Response
[90.8, 120, 70, 94.5]

State the recorded growth for every item in the following list.
1. CC1(C)N=C(N)N=C(N)N1c1ccc(OCC(=O)Nc2ccccc2)c(Cl)c1
2. C=CC(C)(O)CCC1C(=C)CCC2C(C)(C)CCCC12C (stereo not given)
3. CC(CCC(=O)O)[C@H]1CCC2C3C(=O)C[C@@H]4CC(=O)CC[C@]4(C)C3CC(=O)[C@@]21C (stereo not given in full)
4. Cc1cccc(NCS(=O)(=O)O)c1
5. C=CC(=O)Nc1cccc(Nc2nc(Nc3ccc(OCCOC(F)F)cc3)ncc2F)c1

### Response
1. 82.3
2. 91.3
3. 110
4. 106
5. 4.93

Would you mind listing growth for each of the following molecules?
1. CC(C)(C)OC(=O)N1CCN(CCn2cc(C(F)(F)F)c3c(Cl)ncnc32)CC1
2. COc1cc(CN(c2ccc(Cl)cc2)C2OC(=O)c3ccccc32)cc(OC)c1OC (stereo not given)
3. CC(=O)N1N=C2N(Cc3ccccc3)C(=O)c3c(sc4c3CCCC4)N2C1c1cn(-c2ccccc2)nc1-c1ccc(Cl)cc1 (stereo not given)
4. Nc1ncnc2c1ncn2C1OC(COC(c2ccccc2)(c2ccccc2)c2ccccc2)C(O)C1O (stereo not given)
5. COc1ccccc1NC(=O)COc1ccc(/C=C2/Oc3cc4occc4c(OC)c3C2=O)cc1OC
6. CCOC(=O)C1CN(Cc2ccccc2)C(=O)C1=O (stereo not given)

### Response
1. 111
2. 68.6
3. 99.3
4. 76.2
5. 114
6. 76.1

----------
- Test system: SNB-19 CNS
- Assay explanation: NCI-60 one-dose screen, 48 h (100 = growth as untreated, 0 = no growth, -100 = all killed)
- Condition set: 10 µM unless noted
The panel holds about 83,000 compounds, 20% with a hit somewhere; the sample as a whole holds those more often.
# binarize growth: threshold 90% inclusive, high side criterion met, low side criterion not met

{"columns": ["Structure as smiles", "Class name"],
 "data": [
  ["COc1ccc(Cl)cc1NC(=O)c1cc2c(n1C)-c1nc(NC(=O)C(C)(C)C)sc1CC2", "criterion met"],
  ["Fc1ccc(/C=N/n2c(-c3cc(Cl)cc(Cl)c3Cl)nn(CNc3ccc(Cl)nn3)c2=S)cc1", "criterion met"],
  ["CCCCC(=O)Nc1nc2ccc(SCCC)cc2s1", "criterion not met"],
  ["COc1ccc(-c2ccc(NC(=O)Nc3ccc(Cl)c(C(F)(F)F)c3)c(C)n2)cc1", "criterion not met"],
  ["CCc1ccc(C2=C/C(=C/c3ccc(Cl)cc3)C(=O)N2CCc2ccc(S(N)(=O)=O)cc2)cc1", "criterion not met"]
]}

### Prompt Identify whether the reported growth of the following compound is 90% or greater: `CCCCOc1c(N)cc(Cl)cc1C(=O)OCCN(CC)CC`
### Response criterion met

### Prompt Would you mind doing `COC(=O)Nc1nc2ccc(Sc3ccccc3)cc2[nH]1` as well?
### Response criterion not met

### Prompt Request: `Cc1ccn2cc(Cc3cc(=O)oc4c3ccc3ccccc34)c(=O)nc2c1`
### Response criterion met

### Prompt Same again, this time with `O=C(Nc1ccc(-n2ccc3c(NC(=O)c4ccccc4)ncnc32)cc1)c1ccc(Cl)c(C(F)(F)F)c1`
### Response criterion not met

### Prompt What would you report for `COc1ccc(-c2nn(-c3ccc(NC(=O)c4cc(C(F)(F)F)cc(C(F)(F)F)c4)cc3)cc2-c2ccncc2)cc1Cl` ?
### Response criterion not met
